B1: LINE1-mini (parent)
chain: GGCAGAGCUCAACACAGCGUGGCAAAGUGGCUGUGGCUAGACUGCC

- Variants of: B1
- Assay notes: self-cleavage, relative activity (ratio to wild type); higher = more cleavage; in vitro, sequencing; the parent is a self-cleaving ribozyme
Label YES for high-side self-cleavage (at or above 0.08) and NO for low-side self-cleavage (below it).

Take a look at these entries with their results.
Query: hey, is self-cleavage for this one >= 0.08? A4U G22U
Response: YES

Query: Hi team, for A6G G40C , is the recorded self-cleavage at or above 0.08?
Response: NO

Query: Does U28G C37U have a reported self-cleavage of at least 0.08?
Response: NO

Query: Does the variant A16C A41C have recorded self-cleavage that is 0.08 or more?
Response: NO

Query: I'd appreciate it if you could say whether C37A A39C has self-cleavage at least equal to 0.08.
Response: YES

New cases:
Query: API: above_or_equal(metric=self-cleavage, cutoff=0.08) for item U9A C23U
Response: YES

Query: Threshold query (self-cleavage >= 0.08) on A6G U20C
Response: YES

Query: In plain terms: is recorded self-cleavage at least 0.08 for A6C C13G ?
Response: YES

Query: Is self-cleavage at least 0.08? Consider G22U A26C
Response: YES
